System: Escherichia coli TOP10
Test: shrunken log2 fold change of peptide-encoding DNA abundance (4.5 h post-induction vs induction); higher = less antimicrobial activity (less host growth inhibition)
Conditions: time post-induction: 4.5 h; library: site-saturation at positions 5, 18, 19, 20
sequences and their reported shrunken log2 fold change
// keep it numeric: no unit symbol after the value

1) RRIRTRPPRLPRPRPRPCTQPRP ... -0.123
2) RRIRMRPPRLPRPRPRPTTMPRP ... 0.558
3) RRIRIRPPRLPRPRPRPMNKPRP ... -0.627
4) RRIRDRPPRLPRPRPRPQYLPRP ... -0.248
5) RRIRDRPPRLPRPRPRPKINPRP ... -0.389

Request: Find the measured shrunken log2 fold change of `RRIRLRPPRLPRPRPRPKVLPRP` with Escherichia coli TOP10 as test system.
Result: -0.128

Request: Under Escherichia coli TOP10, report shrunken log2 fold change for `RRIRQRPPRLPRPRPRPWSEPRP`
Result: -0.266

Request: Look up and report shrunken log2 fold change, with Escherichia coli TOP10 as system, for `RRIRCRPPRLPRPRPRPHGLPRP`
Result: -0.0989

###

Test system: Escherichia coli TOP10
Test: shrunken log2 fold change of peptide-encoding DNA abundance (4.5 h post-induction vs induction); higher = less antimicrobial activity (less host growth inhibition)
Details: time post-induction: 4.5 h; library: site-saturation at positions 5, 18, 19, 20
RECORDED METRIC: shrunken log2 fold change
Lab note: jot the number down without any unit.

1) RRIRDRPPRLPRPRPRPLIEPRP ... 0.573
2) RRIRCRPPRLPRPRPRPKWVPRP ... 0.0707
3) RRIRLRPPRLPRPRPRPVDGPRP ... 0.0489
4) RRIRFRPPRLPRPRPRPGNPPRP ... -0.00343
5) RRIRLRPPRLPRPRPRPATFPRP ... -0.0149

Request: Identify shrunken log2 fold change associated with the sequence `RRIRHRPPRLPRPRPRPYFMPRP`
Result: -0.489

Request: Find the measured shrunken log2 fold change of `RRIRIRPPRLPRPRPRPGREPRP` and report it.
Result: 0.311

Request: Give a short answer stating reported shrunken log2 fold change for `RRIRCRPPRLPRPRPRPGDPPRP` .
Result: 0.132

Request: Complete the entry with shrunken log2 fold change for `RRIRSRPPRLPRPRPRPLTWPRP`
Result: -0.104

Request: Please report the measured shrunken log2 fold change for `RRIRYRPPRLPRPRPRPNFQPRP`
Result: -0.578

Request: Give the reported value of shrunken log2 fold change for this record: `RRIRPRPPRLPRPRPRPVAHPRP`
Result: 0.0324

Request: Provide measured shrunken log2 fold change value, entry: `RRIRPRPPRLPRPRPRPLQRPRP`
Result: 0.395

###

// values below are reported shrunken log2 fold change
System: Escherichia coli TOP10;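 also: peptides expressed intracellularly from a pBAD plasmid library in pooled LB shake-flask culture, induced with 0.3% L-arabinose, DNA abundance read by NGS, three biological replicates, DESeq2 with apeglm shrinkage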
Test: shrunken log2 fold change of peptide-encoding DNA abundance (4.5 h post-induction vs induction); higher = less antimicrobial activity (less host growth inhibition)
Conditions: time post-induction: 4.5 h; library: site-saturation at positions 5, 18, 19, 20
Answer with the value's number alone.

Look over these answered cases.
1. RRIRLRPPRLPRPRPRPYTMPRP ... -0.923
2. RRIRCRPPRLPRPRPRPAYPPRP ... -0.149
3. RRIRVRPPRLPRPRPRPFWRPRP ... 0.0595
4. RRIRSRPPRLPRPRPRPVGWPRP ... 0.839
5. RRIRIRPPRLPRPRPRPCFRPRP ... -0.233
6. RRIRLRPPRLPRPRPRPSFMPRP ... -0.309

Request: Annotate the sequence `RRIRKRPPRLPRPRPRPWSVPRP` with its measured shrunken log2 fold change.
Result: -0.0212

Request: Give shrunken log2 fold change for the following sequence: `RRIRARPPRLPRPRPRPASWPRP`
Result: 0.537

Request: Supply measured shrunken log2 fold change of `RRIRNRPPRLPRPRPRPLYMPRP` in your reply.
Result: -0.308
